Just for reference, PubChem BioAssay (NCATS) is where these values come from.

# System: CRL-7250
# ASSAY_EXPLANATION: Cytotoxic Profiling of Annotated Libraries Using Quantitative High-Throughput Screening (AID 1296008); further: nearly all actives have a fitted effect of over 60% in size
# ASSAY_SETUP: Five cell lines viability, CellTiter-Glo ATP luminescence, 48-72 h
Records with an inconclusive call do not appear. The source made the active and inactive calls. The call rests on the fitted dose curve; in most records, active means well fitted inhibition curve with a large enough effect; inconclusive means small, poorly fitted or top-dose-only effect; inactive means flat fitted curve, though single readings scatter.
Classes used: active, inactive

INSERT INTO assay_data (molecule, qualitative_label) VALUES
  ('COc1ccc2c(c1)c(CC(=O)O)c(C)n2C(=O)c1ccc(Cl)cc1', 'inactive'),
  ('CN1CCN(CCCN2c3ccccc3Sc3ccc(Cl)cc32)CC1', 'inactive'),
  ('CN1CCC(=C2c3ccccc3C=Cc3ccccc32)CC1', 'inactive'),
  ('CC(=O)OCC(CCn1cnc2cnc(N)nc21)COC(C)=O', 'inactive'),
  ('COc1ccc(C2CNC(=O)C2)cc1OC1CCCC1 (configuration not stated)', 'inactive'),
  ('Cc1cc(C(C)(C)C)c(O)c(C)c1CC1=NCCN1', 'inactive'),
  ('CN(Cc1cnc2nc(N)nc(N)c2n1)c1ccc(C(=O)N[C@@H](CCC(=O)O)C(=O)O)cc1', 'active'),
  ('NS(=O)(=O)c1cc2c(cc1Cl)NCNS2(=O)=O', 'inactive'),
  ('Cc1cnc(C(=O)NCCc2ccc(S(=O)(=O)NC(=O)NC3CCCCC3)cc2)cn1', 'inactive'),
  ('C[C@H]1c2cccc(O)c2C(O)=C2C(=O)[C@]3(O)C(O)=C(C(N)=O)C(=O)[C@@H](N(C)C)[C@@H]3[C@@H](O)[C@@H]21', 'inactive'),
  ('CC(CCc1ccc(O)cc1)NCCc1ccc(O)c(O)c1 (configuration not stated)', 'active'),
  ('C[C@@H]1CC(=O)NN=C1c1ccc(NN=C(C#N)C#N)cc1', 'inactive'),
  ('O=c1c(O)c(-c2ccc(O)c(O)c2)oc2cc(O)cc(O)c12', 'inactive'),
  ('NCCc1cnc[nH]1', 'inactive'),
  ('O=C(c1ccc(F)cc1)C1CCN(CCn2c(=O)[nH]c3ccccc3c2=O)CC1', 'inactive'),
  ('CN(CCOc1ccc(NS(C)(=O)=O)cc1)CCc1ccc(NS(C)(=O)=O)cc1', 'inactive'),
  ('CC(C)(Oc1ccc(C2CC2(Cl)Cl)cc1)C(=O)O (configuration not stated)', 'inactive'),
  ('CC(C)(C)C(=O)Oc1ccc(S(=O)(=O)Nc2ccccc2C(=O)NCC(=O)O)cc1', 'inactive'),
  ('NCCCCCC(=O)O', 'inactive'),
  ('CC1(C)O[C@H]2CC(=O)OC[C@]23[C@H]2CC[C@@]4(C)[C@H](c5ccoc5)OC(=O)[C@H]5O[C@]54[C@]2(C)C(=O)C[C@@H]13', 'inactive'),
  ('CCCNCC(O)COc1ccccc1C(=O)CCc1ccccc1 (configuration not stated)', 'inactive'),
  ('CCN1CCCC1CNC(=O)c1cc(S(=O)(=O)CC)c(N)cc1OC (configuration not stated)', 'inactive');
